# method summary: in vitro
# Format: cell-based
# details: B cell line
Where no end group is shown, it is not given here.
assay readout: viability at 3 h, 2 μg (%)

construct sequence	assay readout	unit spec	meas value
NAKDYKGAAAEFPKWNKAGGRVLAGLVKRRK [P307]	viability at 3 h, 2 μg	%	93.8

====

# method summary: in vitro
# Format: cell-based
# details: B cell line
Where no end group is shown, it is not given here.

construct sequence	viability at 2 h, 2 μg [%]
NAKDYKGAAAEFPKWNKAGGRVLAGLVKRRK [P307]	92.5

====

# method summary: in vitro
# Assay type: cell-based
# details: B cell line
Where no end group is shown, it is not given here.

construct sequence	unit spec	viability at 1 h, 200 μg
NAKDYKGAAAEFPKWNKAGGRVLAGLVKRRK [P307]	%	71.4

====

# method summary: in vitro
# Type: cell-based
# details: B cell line
Where no end group is shown, it is not given here.

construct sequence	viability at 2 h, 200 μg (%)
NAKDYKGAAAEFPKWNKAGGRVLAGLVKRRK [P307]	71.9

====

# method summary: in vitro
# Type: cell-based
# details: B cell line
Where no end group is shown, it is not given here.
assay readout: viability at 0.5 h, 2 μg (%)

construct sequence	unit spec	meas value
NAKDYKGAAAEFPKWNKAGGRVLAGLVKRRK [P307]	%	76.9

====

# method summary: in vitro
# Type: cell-based
# details: B cell line
Where no end group is shown, it is not given here.

construct sequence	viability at 3 h, 200 μg / %
NAKDYKGAAAEFPKWNKAGGRVLAGLVKRRK [P307]	58.6

====

# method summary: in vitro
# Assay type: cell-based
# details: B cell line
Where no end group is shown, it is not given here.
assay readout: viability at 5 min, 200 μg (%)

construct sequence	assay readout	meas value
NAKDYKGAAAEFPKWNKAGGRVLAGLVKRRK [P307]	viability at 5 min, 200 μg	94.6

====

# method summary: in vitro
# Format: cell-based
# details: B cell line
Where no end group is shown, it is not given here.

construct sequence	unit spec	viability at 24 h, 2 μg
NAKDYKGAAAEFPKWNKAGGRVLAGLVKRRK [P307]	%	96.3

====

# method summary: in vitro
# Format: cell-based
# details: B cell line
Where no end group is shown, it is not given here.

construct sequence	unit spec	viability at 1 h, 20 μg
NAKDYKGAAAEFPKWNKAGGRVLAGLVKRRK [P307]	%	89.7

====

# method summary: in vitro
# Format: cell-based
# details: B cell line
Where no end group is shown, it is not given here.

construct sequence	unit spec	viability at 5 min, 20 μg
NAKDYKGAAAEFPKWNKAGGRVLAGLVKRRK [P307]	%	97.2

====

# method summary: in vitro
# Type: cell-based
# details: B cell line
Where no end group is shown, it is not given here.
assay readout: viability at 0.5 h, 20 μg

construct sequence	assay readout	meas value
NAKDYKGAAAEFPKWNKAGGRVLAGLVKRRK [P307]	viability at 0.5 h, 20 μg	88.6%

====

# method summary: in vitro
# Format: cell-based
# details: B cell line
Where no end group is shown, it is not given here.

construct sequence	viability at 5 min, 2 μg [%]
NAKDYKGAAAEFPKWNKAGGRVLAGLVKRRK [P307]	95.2
